Measured Ki by item
# Assayed system: binding of tritiated LTB4 to guinea pig lung membranes (Cavia porcellus)
# Test: biochemical
# Details: read-out: pKi (mean -log Ki) (converted)
Structures can show the parent of a compound that is named as a salt.
Quantity kind: Ki (nM)

{"columns": ["Compound", "Quantitative readout"],
 "data": [
  ["CCCc1ccc(CCC(=O)O)cc1OCCCOc1cc(O)c(-c2ccc(F)cc2)cc1CC [sodium salt]", 102],
  ["CCCc1c(OCCCCOc2cc(O)c(-c3ccc(F)cc3)cc2CC)cccc1Oc1ccccc1C(=O)O [Example 73, sesquihydrate]", 17.8],
  ["CCc1cc(-c2ccc(F)cc2)c(O)cc1OCCCOc1cccc(OCCCCC(=O)N(C)C)c1CCC(=O)O", 8.32],
  ["CCc1cc(-c2ccc(F)cc2)c(O)cc1OCCCOc1cc(OCCCCC(=O)O)ccc1CCC(=O)O", 20.9],
  ["CCc1cc(-c2ccc(F)cc2)c(O)cc1OCCCOc1ccccc1CCc1nnn[nH]1", 14.1],
  ["CCc1cc(-c2ccc(F)cc2)c(O)cc1OCCCOc1ccccc1CCC(=O)O", 3.63],
  ["CCc1cc(-c2ccc(F)cc2)c(O)cc1OCCCOc1cccc(OCCCCC(=O)O)c1CCC(=O)O", 0.55],
  ["CCCc1c(Cc2ccccc2C(=O)O)cccc1OCCCOc1cc(O)c(-c2ccc(F)cc2)cc1CC", 10.5],
  ["CCc1cc(-c2ccc(F)cc2)c(O)cc1OCCCOc1ccc2c(c1CCC(=O)O)CCC(CC(=O)O)C2=O (stereo not shown)", 0.219],
  ["CCCc1c(OCCCOc2cc(O)c(-c3ccc(F)cc3)cc2CC)cccc1[S+]([O-])c1ccccc1C(=O)O (stereo not shown)", 1.35],
  ["CCc1cc(-c2ccc(F)cc2)c(O)cc1OCC/C=C/c1ccccc1CCC(=O)O [9 (trans)]", 3.89],
  ["CCCCCC(C)(CCCCCOc1cc(O)c(-c2ccc(F)cc2)cc1CC)c1nnn[nH]1 (stereo not shown)", 53.7],
  ["CCc1cc(-c2ccc(F)cc2)c(O)cc1OCCC=Cc1ccccc1CCC(=O)O", 5.13],
  ["CCCc1cc(CCC(=O)O)ccc1OCCCOc1cc(O)c(-c2ccc(F)cc2)cc1CC", 20.9],
  ["CCc1cc(-c2ccccc2)c(O)cc1OCCCOc1ccc2c(=O)c3ccccc3oc2c1CCC(=O)O [Example 64, sodium salt hemihydrate]", 14.1],
  ["CCc1cc(-c2ccc(F)cc2)c(O)cc1OCCCOc1cccc(O)c1CCC(=O)O", 0.977]
]}

* * *

# Assayed system: binding of tritiated LTB4 to guinea pig lung membranes (Cavia porcellus, UniProt H0VYV8)
# Sequence (H0VYV8 1-348): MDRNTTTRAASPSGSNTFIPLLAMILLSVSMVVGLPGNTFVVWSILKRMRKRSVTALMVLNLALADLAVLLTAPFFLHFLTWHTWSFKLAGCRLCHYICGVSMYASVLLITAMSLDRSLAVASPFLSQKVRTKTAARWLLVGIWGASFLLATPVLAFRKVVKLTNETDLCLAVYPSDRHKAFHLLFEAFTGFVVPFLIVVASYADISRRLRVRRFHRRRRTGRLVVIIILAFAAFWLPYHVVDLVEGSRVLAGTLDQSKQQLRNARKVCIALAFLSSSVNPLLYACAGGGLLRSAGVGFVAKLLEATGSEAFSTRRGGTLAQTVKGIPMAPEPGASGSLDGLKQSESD
# Test: biochemical
# Details: read-out: pKi (mean -log Ki) (converted)
Counter-ions that a name gives are not always drawn.
Categories are defined by ranges of Ki, namely 0 = under 2 nM, 1 = from 2 nM up to 20 nM, 2 = 20 nM and over

{"columns": ["Compound", "Class name"],
 "data": [
  ["CCCc1c(OCCCOc2cc(O)c(-c3ccc(F)cc3)cc2CC)cccc1Oc1cc(F)ccc1C(=O)O", 1],
  ["CCc1cc(-c2ccc(F)cc2)c(O)cc1OCCCOc1ccccc1CCC(=O)NS(C)(=O)=O", 0],
  ["CCCc1c(OCCCOc2cc(O)c(-c3ccc(F)cc3)cc2CC)cccc1Oc1cccc(F)c1C(=O)O [Example 70, disodium salt hydrate]", 1],
  ["O=C(O)CCc1ccccc1OCCCOc1cc(O)c(-c2ccc(F)cc2)cc1Br", 2],
  ["CCc1cc(-c2ccc(F)cc2)c(O)cc1OCCCOc1ccccc1CCC(=O)NS(=O)(=O)c1ccccc1", 1],
  ["CCSc1cc(-c2ccc(F)cc2)c(O)cc1OCCCOc1ccccc1CCC(=O)O", 2],
  ["CCc1cc(-c2ccc(F)cc2)c(O)cc1OCCCOc1cccc(OCCCCSC)c1CCC(=O)O", 1],
  ["CCCc1c(CCC(=O)O)cccc1OCCCOc1cc(O)c(-c2ccc(F)cc2)cc1CC", 1],
  ["O=C(O)CCCCOc1cccc(OCCCOc2cc(O)c(-c3ccc(F)cc3)cc2-c2ccc(F)cc2)c1CCC(=O)O", 1],
  ["CCc1cc(-c2ccccc2)c(O)cc1OCCCOc1cc(-c2ccccc2)ccc1CCC(=O)O [Example 62, disodium salt monohydrate]", 2],
  ["CCc1cc(-c2ccc(F)cc2)c(O)cc1OCCCOc1ccc(C#CCCC(=O)O)cc1CCC(=O)O [Example 83, hydrate]", 0],
  ["CCc1cc(-c2ccc(F)cc2)c(O)cc1OCCCOc1ccc2c(c1CCC(=O)O)CC(CC(=O)O)C2=O (stereo not drawn)", 0],
  ["CCc1cc(-c2ccc(F)cc2)c(O)cc1OCCCOc1ccccc1CC(C)(C)c1nnn[nH]1", 1],
  ["CCc1cc(-c2ccc(F)cc2)c(O)cc1OCCCOc1cccc(OC)c1CCC(=O)O", 1],
  ["CCc1cc(-c2ccc(F)cc2)c(O)cc1OCCCOc1ccc2c(=O)c3cc(C(=O)O)ccc3oc2c1CCC(=O)O [Example 67, disodium salt trihydrate]", 0]
]}

* * *

Measured Ki by item
# Assayed system: binding of tritiated LTB4 to guinea pig lung membranes (Cavia porcellus, UniProt H0VYV8)
# Test: biochemical
# Details: read-out: pKi (mean -log Ki) (converted)
Counter-ions that a name gives are not always drawn.
Quantity kind: Ki (nM)

{"columns": ["Molecule", "Quantitative readout"],
 "data": [
  ["CCc1cc(-c2ccc(F)cc2)c(O)cc1OCCCCc1ccccc1CCC(=O)O [Example 10]", 8.91],
  ["CCc1cc(-c2ccc(F)cc2)c(O)cc1OCCCOc1cc(Oc2ccc(C(=O)O)cc2)ccc1CCC(=O)O [Example 26]", 13.8],
  ["CCc1cc(-c2ccccc2)c(O)cc1OCCCOc1ccc2c(=O)c3cc(C(=O)O)ccc3oc2c1CCC(=O)O [Example 60, disodium salt monohydrate]", 0.0646],
  ["CCc1cc(-c2ccc(F)cc2)c(O)cc1OCCCCc1cccc(OC)c1CCC(=O)O [Example 11]", 21.4],
  ["CCCCc1c(OCCCOc2cc(O)c(-c3ccc(F)cc3)cc2CC)cccc1Oc1ccccc1C(=O)O [Example 75, hydrate]", 16.2],
  ["CCc1cc(-c2ccc(F)cc2)c(O)cc1OCCCOc1ccc(NC(=O)CCCC(=O)N2CCOCC2)cc1CCC(=O)O [Example 69]", 12.9],
  ["CCCc1c(OCCCOc2cc(O)c(-c3ccc(F)cc3)cc2CC)cccc1Oc1ccccc1C(=O)O [sodium salt]", 5.62]
]}

* * *

Measured Ki by item
# Assayed system: binding of tritiated LTB4 to guinea pig lung membranes (Cavia porcellus, UniProt H0VYV8)
# Test: biochemical
# Details: read-out: pKi (mean -log Ki) (converted)
Structures can show the parent of a compound that is named as a salt.

{"columns": ["Molecule", "Assayed system", "Ki [nM]"],
 "data": [
  ["CCCc1c(OCCCOc2cc(O)c(-c3ccccc3)cc2CC)cccc1Oc1ccccc1-c1nnn[nH]1 [Example 63, disodium salt sesquihydrate]", "binding of tritiated LTB4 to guinea pig lung membranes (Cavia porcellus, UniProt H0VYV8)", 11.5],
  ["CCc1cc(-c2ccccc2)c(O)cc1OCCCOc1ccc2c(c1CCC(=O)O)CCC(CC(=O)O)C2=O (stereo not shown)", "binding of tritiated LTB4 to guinea pig lung membranes (Cavia porcellus, UniProt H0VYV8)", 0.851],
  ["CCc1cc(-c2ccc(F)cc2)c(O)cc1OCCCOc1ccc2c(=O)c3ccccc3oc2c1CCC(=O)O", "binding of tritiated LTB4 to guinea pig lung membranes (Cavia porcellus, UniProt H0VYV8)", 3.47],
  ["CCc1cc(-c2ccc(F)cc2)c(O)cc1OCCCOc1ccccc1/C=C/C(=O)O", "binding of tritiated LTB4 to guinea pig lung membranes (Cavia porcellus, UniProt H0VYV8)", 9.55],
  ["CCc1cc(-c2ccc(F)cc2)c(O)cc1OCCCOc1cccc(Oc2ccccc2C(=O)O)c1Cc1ccccc1", "binding of tritiated LTB4 to guinea pig lung membranes (Cavia porcellus, UniProt H0VYV8)", 53.7],
  ["CCCCc1cc(-c2ccc(F)cc2)c(O)cc1OCCCOc1ccccc1CCC(=O)O", "binding of tritiated LTB4 to guinea pig lung membranes (Cavia porcellus, UniProt H0VYV8)", 47.9],
  ["CCc1cc(-c2ccc(F)cc2)c(O)cc1OCCCOc1ccccc1C(C)(C)CC(=O)O", "binding of tritiated LTB4 to guinea pig lung membranes (Cavia porcellus, UniProt H0VYV8)", 2.29],
  ["CCCc1c(OCCCOc2cc(O)c(-c3ccc(F)cc3)cc2CC)cccc1Sc1ccccc1C(=O)O", "binding of tritiated LTB4 to guinea pig lung membranes (Cavia porcellus, UniProt H0VYV8)", 11.2],
  ["CCc1cc(-c2ccc(F)cc2)c(O)cc1OCCCOc1cccc(OCCCCc2nnn[nH]2)c1CCC(=O)O", "binding of tritiated LTB4 to guinea pig lung membranes (Cavia porcellus, UniProt H0VYV8)", 1.35],
  ["CCCc1c(OCCCOc2cc(O)c(-c3ccccc3)cc2CC)cccc1Oc1cccc(F)c1C(=O)O [Example 65, disodium salt]", "binding of tritiated LTB4 to guinea pig lung membranes (Cavia porcellus, UniProt H0VYV8)", 12.3],
  ["CCc1cc(-c2ccc(F)cc2)c(O)cc1OCCCCCC(c1ccc(OCC(=O)O)cc1)c1nn[nH]n1 (stereo not shown)", "binding of tritiated LTB4 to guinea pig lung membranes (Cavia porcellus, UniProt H0VYV8)", 0.245],
  ["CCc1cc(-c2ccc(F)cc2)c(O)cc1OCCCOc1ccccc1/C=C(\\C)C(=O)O", "binding of tritiated LTB4 to guinea pig lung membranes (Cavia porcellus, UniProt H0VYV8)", 5.01],
  ["CCc1cc(-c2ccc(F)cc2)c(O)cc1OCC/C=C\\c1ccccc1CCC(=O)O [9 (cis)]", "binding of tritiated LTB4 to guinea pig lung membranes (Cavia porcellus, UniProt H0VYV8)", 3.63],
  ["CCc1cc(-c2ccccc2)c(O)cc1OCCCOc1ccc2oc3ccccc3c2c1CCC(=O)O [Example 59, disodium salt]", "binding of tritiated LTB4 to guinea pig lung membranes (Cavia porcellus, UniProt H0VYV8)", 51.3],
  ["CCCc1c(OCCCOc2cc(O)c(-c3ccccc3)cc2CC)ccc2c1OC(C(=O)O)CC2 (stereo not shown)", "binding of tritiated LTB4 to guinea pig lung membranes (Cavia porcellus, UniProt H0VYV8)", 1.2],
  ["CCCc1c(OCCCOc2cc(O)c(-c3ccc(F)cc3)cc2CC)cccc1C(=O)c1ccccc1C(=O)O", "binding of tritiated LTB4 to guinea pig lung membranes (Cavia porcellus, UniProt H0VYV8)", 9.55],
  ["CCc1cc(-c2ccc(F)cc2)c(O)cc1OCCCOc1ccc(CCCCC(=O)O)c2c1CCC(=O)O2", "binding of tritiated LTB4 to guinea pig lung membranes (Cavia porcellus, UniProt H0VYV8)", 0.257],
  ["CCCc1c(OCCCOc2cc(O)c(-c3ccccc3)cc2CC)cccc1OC(C)C(=O)O (stereo not shown)", "binding of tritiated LTB4 to guinea pig lung membranes (Cavia porcellus, UniProt H0VYV8)", 9.33],
  ["CCc1cc(-c2ccc(F)cc2)c(O)cc1OCCCOc1cccc(CCC(=O)O)c1", "binding of tritiated LTB4 to guinea pig lung membranes (Cavia porcellus, UniProt H0VYV8)", 8.32],
  ["CCc1cc(-c2ccc(F)cc2)c(O)cc1OCCCOc1cccc(Oc2ccc(C(=O)O)cc2)c1CCC(=O)O", "binding of tritiated LTB4 to guinea pig lung membranes (Cavia porcellus, UniProt H0VYV8)", 0.138],
  ["CCc1cc(-c2ccc(F)cc2)c(O)cc1OCCCOc1ccc(C(=O)CC(C)(C)CC(=O)O)cc1CCC(=O)O", "binding of tritiated LTB4 to guinea pig lung membranes (Cavia porcellus, UniProt H0VYV8)", 1.55],
  ["CCCc1c(OCCCOc2cc(O)c(-c3ccc(F)cc3)cc2CC)cccc1S(=O)(=O)c1ccccc1C(=O)O [Example 82, hydrate]", "binding of tritiated LTB4 to guinea pig lung membranes (Cavia porcellus, UniProt H0VYV8)", 10.2],
  ["CCCc1c(OCCCCCOc2cc(O)c(-c3ccc(F)cc3)cc2CC)cccc1Oc1ccccc1C(=O)O", "binding of tritiated LTB4 to guinea pig lung membranes (Cavia porcellus, UniProt H0VYV8)", 6.61],
  ["CCCc1c(OCCCOc2cc(O)c(-c3ccc(F)cc3)cc2CC)ccc2c1OC(C(=O)O)CC2 (stereo not shown)", "binding of tritiated LTB4 to guinea pig lung membranes (Cavia porcellus, UniProt H0VYV8)", 2.95],
  ["CCc1cc(-c2ccc(F)cc2)c(O)cc1OCCCOc1cccc2c1CCC(=O)O2", "binding of tritiated LTB4 to guinea pig lung membranes (Cavia porcellus, UniProt H0VYV8)", 0.525],
  ["CCc1cc(-c2ccc(F)cc2)c(O)cc1OCCCOc1cccc(Oc2ccccc2C(=O)O)c1CC(C)C", "binding of tritiated LTB4 to guinea pig lung membranes (Cavia porcellus, UniProt H0VYV8)", 13.8],
  ["CCc1cc(-c2ccc(F)cc2)c(O)cc1OCCCOc1ccccc1C(O)C(C)(C)c1nnn[nH]1 (stereo not shown)", "binding of tritiated LTB4 to guinea pig lung membranes (Cavia porcellus, UniProt H0VYV8)", 1.95],
  ["CCCc1c(OCCCOc2cc(O)c(-c3ccc(F)cc3)cc2CC)cccc1Oc1ccccc1CC(=O)O", "binding of tritiated LTB4 to guinea pig lung membranes (Cavia porcellus, UniProt H0VYV8)", 8.13],
  ["CCc1cc(-c2ccc(F)cc2)c(O)cc1OCCCOc1ccccc1CCC(=O)N(C)C", "binding of tritiated LTB4 to guinea pig lung membranes (Cavia porcellus, UniProt H0VYV8)", 245],
  ["CCCCOc1cccc(OCCCOc2cc(O)c(-c3ccc(F)cc3)cc2CC)c1CCC(=O)O", "binding of tritiated LTB4 to guinea pig lung membranes (Cavia porcellus, UniProt H0VYV8)", 30.2],
  ["CCc1cc(-c2ccc(F)cc2)c(O)cc1OCCCCOc1ccccc1CCC(=O)O", "binding of tritiated LTB4 to guinea pig lung membranes (Cavia porcellus, UniProt H0VYV8)", 3.72]
]}
